molecular target: wild type mouse CFTR (Mus musculus); construct: expressed in transfected cells; host or cells: mouse mIMCD3_wt cells (ATCC CRL-2123); assay: YFP halide (YHA) assay in mIMCD3_wt cells, Cpd 1 with Metformin; type: cell-based; conditions: [Metformin] 20 μM; mIMCD3_wt cells; read-out: IC50
measurement_type: IC50 (µM)
# number only, unit µM dropped from output

Return IC50 for the following molecule: COC1CCN(C2CCN(c3cc(C(=O)NS(=O)(=O)N(C)C)nc4c3c(C3CCC3)nn4-c3ccc(F)cc3)CC2)CC1
3.67

----------
molecular target: wild type mouse CFTR (Mus musculus, UniProt P26361); construct: expressed in transfected cells; host or cells: mouse mIMCD3_wt cells (ATCC CRL-2123); assay: YFP halide (YHA) assay in mIMCD3_wt cells, Cpd 1 with Metformin; format: cell-based; conditions: [Metformin] 1250 μM; mIMCD3_wt cells; read-out: IC50
Sequence (P26361 whole entry): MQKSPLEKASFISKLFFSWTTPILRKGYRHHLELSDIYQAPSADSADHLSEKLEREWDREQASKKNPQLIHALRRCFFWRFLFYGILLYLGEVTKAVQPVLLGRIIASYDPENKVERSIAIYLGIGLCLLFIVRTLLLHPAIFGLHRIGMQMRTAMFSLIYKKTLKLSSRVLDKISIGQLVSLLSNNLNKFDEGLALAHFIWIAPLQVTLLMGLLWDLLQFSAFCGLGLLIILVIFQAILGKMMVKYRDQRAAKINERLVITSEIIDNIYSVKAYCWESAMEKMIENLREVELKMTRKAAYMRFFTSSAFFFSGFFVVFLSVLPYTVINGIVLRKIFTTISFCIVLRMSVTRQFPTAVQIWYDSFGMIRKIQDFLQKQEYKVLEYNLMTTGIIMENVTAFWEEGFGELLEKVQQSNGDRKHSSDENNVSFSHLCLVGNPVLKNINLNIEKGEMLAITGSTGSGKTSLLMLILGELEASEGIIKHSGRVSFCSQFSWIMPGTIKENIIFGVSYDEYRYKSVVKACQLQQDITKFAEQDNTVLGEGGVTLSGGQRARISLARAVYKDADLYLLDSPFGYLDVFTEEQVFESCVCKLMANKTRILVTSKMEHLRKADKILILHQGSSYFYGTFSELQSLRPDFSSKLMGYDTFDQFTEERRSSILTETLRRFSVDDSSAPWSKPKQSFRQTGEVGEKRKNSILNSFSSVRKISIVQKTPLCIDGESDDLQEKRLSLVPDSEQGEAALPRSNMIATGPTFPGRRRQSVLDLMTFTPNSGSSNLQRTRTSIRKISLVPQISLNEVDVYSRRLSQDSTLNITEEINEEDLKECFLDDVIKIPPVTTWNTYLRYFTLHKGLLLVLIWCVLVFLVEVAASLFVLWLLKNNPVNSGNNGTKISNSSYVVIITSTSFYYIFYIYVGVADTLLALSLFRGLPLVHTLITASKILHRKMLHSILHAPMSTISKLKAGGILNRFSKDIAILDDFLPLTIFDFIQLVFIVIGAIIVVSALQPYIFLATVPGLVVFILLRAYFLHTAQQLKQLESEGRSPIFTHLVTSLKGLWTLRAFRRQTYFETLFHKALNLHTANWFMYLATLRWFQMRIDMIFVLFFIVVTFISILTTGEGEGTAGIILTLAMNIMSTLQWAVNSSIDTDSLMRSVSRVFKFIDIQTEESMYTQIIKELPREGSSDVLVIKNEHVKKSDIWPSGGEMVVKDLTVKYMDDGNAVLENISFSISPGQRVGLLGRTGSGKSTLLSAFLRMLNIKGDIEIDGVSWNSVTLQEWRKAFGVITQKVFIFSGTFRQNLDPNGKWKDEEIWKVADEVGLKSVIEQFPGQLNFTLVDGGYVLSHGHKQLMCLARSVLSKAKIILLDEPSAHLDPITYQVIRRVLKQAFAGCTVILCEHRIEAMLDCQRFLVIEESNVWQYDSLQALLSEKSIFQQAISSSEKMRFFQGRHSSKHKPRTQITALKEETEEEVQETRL
measurement_type: IC50 (nM)
Use nM as the unit, but write only the number.

Name the recorded IC50 of COC1CCN(C2CCN(c3cc(C(=O)NS(=O)(=O)N(C)C)nc4c3c(C3CCC3)nn4-c3ccc(F)cc3)CC2)CC1 [Cpd 1] , assay system wild type mouse CFTR (Mus musculus, UniProt P26361).
1820

----------
target: wild type mouse CFTR (Mus musculus, UniProt P26361); construct: expressed in transfected cells; host or cells: mouse mIMCD3_wt cells (ATCC CRL-2123); test: YFP halide (YHA) assay in mIMCD3_wt cells, Cpd 1 with Metformin; type: cell-based; settings: [Metformin] 630 μM; mIMCD3_wt cells; read-out: IC50
measurement_type: pIC50
Quick note: pIC50 means taking -log10 of the concentration in moles per liter.

Using the record for COC1CCN(C2CCN(c3cc(C(=O)NS(=O)(=O)N(C)C)nc4c3c(C3CCC3)nn4-c3ccc(F)cc3)CC2)CC1 , state its measured pIC50.
5.75

----------
molecular target: wild type mouse CFTR (Mus musculus); assay: YFP halide (YHA) assay in mIMCD3_wt cells, Cpd 1 with Metformin; conditions: Compound 1 alone at 30 μM; mouse mIMCD3_wt cells; read-out: EC50 of inhibition of mouse CFTR activity
measurement_type: EC50 (µM)
Give the number; µM is assumed, so skip it.

Supply measured EC50 of COC1CCN(C2CCN(c3cc(C(=O)NS(=O)(=O)N(C)C)nc4c3c(C3CCC3)nn4-c3ccc(F)cc3)CC2)CC1 in your reply.
3.12

----------
target: wild type mouse CFTR (Mus musculus, UniProt P26361); construct: expressed in transfected cells; host or cells: mouse mIMCD3_wt cells (ATCC CRL-2123); assay: YFP halide (YHA) assay in mIMCD3_wt cells, Cpd 1 with Metformin; type: cell-based; details: [Metformin] 0 μM; mIMCD3_wt cells; read-out: IC50
measurement_type: pIC50
Note on units: pIC50 is unitless, being -log10 of a concentration expressed in mol/L.

Tell us which pIC50 value is on record for COC1CCN(C2CCN(c3cc(C(=O)NS(=O)(=O)N(C)C)nc4c3c(C3CCC3)nn4-c3ccc(F)cc3)CC2)CC1
5.51

----------
Target: wild type mouse CFTR (Mus musculus, UniProt P26361)
Construct: expressed in transfected cells; host or cells: mouse mIMCD3_wt cells (ATCC CRL-2123)
Experiment: YFP halide (YHA) assay in mIMCD3_wt cells, Cpd 1 with Metformin
Format: cell-based
Details: [Metformin] 160 μM; mIMCD3_wt cells; read-out: IC50
Protocol: To evaluate the ability of a test compound combination to inhibit wild type CFTR using tubular kidney cells, a YFP halide assay using mIMCD3_wt cells (ATCC® CRL-2123) transfected with wild type mouse CFTR was developed (Galietta, Jayaraman, and Verkman 2001). […] Mouse mIMCD3_wt cells were transfected with 20 ng of wild type CFTR and 80 ng of plasmid encoding YFP (H148Q/I152L/F47L) using jetPEI (Polyplus transfection). […] YFP fluorescence was measured using an EnVision plate reader (PerkinElmer). […]
measurement_type: IC50 (µM)
Write the value in µM as a bare number.

Quick one: give measured IC50 for COC1CCN(C2CCN(c3cc(C(=O)NS(=O)(=O)N(C)C)nc4c3c(C3CCC3)nn4-c3ccc(F)cc3)CC2)CC1
2.91
